# assayedTarget: UP1 (hnRNP A1 RRM1-RRM2) (UniProt P09651 1-196)
# Sequence (P09651 1-196): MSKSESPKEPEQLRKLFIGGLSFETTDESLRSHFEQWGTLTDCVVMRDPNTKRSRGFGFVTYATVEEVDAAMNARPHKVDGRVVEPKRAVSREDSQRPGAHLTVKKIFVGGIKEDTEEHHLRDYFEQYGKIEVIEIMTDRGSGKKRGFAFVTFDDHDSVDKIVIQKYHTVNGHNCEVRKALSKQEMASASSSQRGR
# assay: ITC; N=1.06; ITC: 20 mM Na phosphate pH 6.5, 100 mM NaCl, no DTT, 25 C; EMSA: 100 mM KCl, 20% glycerol, 0.2 mM EDTA, 100 mM Tris pH 8.0, 0.5 mM DTT, 0.5 mM ATP, 20 mM creatine phosphate, 3.2 mM MgCl2, 4 C; footprint: 12 mM Tris-HCl pH 7.5, 48 mM NaCl, 1.2 mM MgCl2, 37 C
# appliedConditions: protein: recombinant; tags: His tag removed by TEV; single strand
reportedProperty: pKd
# log scale: pKd equals minus log10 of the concentration in mol/L

Prompt: Which pKd is reported for this binder? AGUUUAUUAGCA (ssRNA) [12-mer-mut1]
Completion: 6.81
